The reported numbers originate from ChEMBL document CHEMBL1156160.

- method summary: AUC in monkey at 3 mg/kg, po
- Type: ADME, organism-based, Macaca mulatta
- Parameters: dose 3 mg/kg, route oral
- test conditions: rhesus monkey, plasma
value kind: AUC (µM·h)
Give bare numbers, in µM·h.

-- ask Query AUC for CC(C)(C)NC(=O)N[C@H](C(=O)N1C[C@H]2[C@@H]([C@H]1C(=O)NC(CC1CCC1)C(=O)C(N)=O)C2(C)C)C(C)(C)C (stereo partly specified) [BOCEPREVIR]
-- reply 0.12

* * *

- Test system: Hepatitis C virus
- method summary: Antiviral activity against HCV in human hepatoma cells assessed as inhibition of RNA replication by replicon assay
- Format: functional, Hepacivirus hominis
value kind: EC90 (nM)
Give bare numbers, in nM.

Below are worked cases with known answers.
compound	EC90 [nM]
CC1(NC(=O)N[C@H](C(=O)N2C[C@H]3[C@@H]([C@H]2C(=O)NC(CC2CC2)C(=O)C(N)=O)C3(C)C)C(C)(C)C)CCC1 (stereo partly drawn)	200
CC(C)(C)[C@H](NC(=O)NC1(CS(=O)(=O)C(C)(C)C)CCCCC1)C(=O)N1C[C@H]2[C@@H]([C@H]1C(=O)NC(CC1CC1)C(=O)C(N)=O)C2(C)C (stereo partly drawn)	100

Turning now to a further record.
-- ask Query EC90 for CC(c1ccccc1)C1(NC(=O)N[C@H](C(=O)N2C[C@H]3[C@@H]([C@H]2C(=O)NC(CC2CC2)C(=O)C(N)=O)C3(C)C)C(C)(C)C)CCCCC1 (stereo partly drawn)
-- reply 400
